Target: IRAK4 (Homo sapiens)
Sequence (Q9NWZ3 1-460): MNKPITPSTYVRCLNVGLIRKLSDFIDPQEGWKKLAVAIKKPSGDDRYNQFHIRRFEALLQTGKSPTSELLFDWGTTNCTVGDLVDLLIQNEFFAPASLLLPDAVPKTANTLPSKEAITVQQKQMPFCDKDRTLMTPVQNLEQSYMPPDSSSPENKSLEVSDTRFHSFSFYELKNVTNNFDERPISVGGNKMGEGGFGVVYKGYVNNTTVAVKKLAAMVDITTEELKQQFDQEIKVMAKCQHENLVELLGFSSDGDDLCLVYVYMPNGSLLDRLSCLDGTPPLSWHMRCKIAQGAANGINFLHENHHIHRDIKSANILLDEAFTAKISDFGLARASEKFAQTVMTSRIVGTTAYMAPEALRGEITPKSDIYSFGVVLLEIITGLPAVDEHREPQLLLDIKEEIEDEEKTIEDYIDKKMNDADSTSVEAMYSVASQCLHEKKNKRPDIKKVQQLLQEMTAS
Assay: hPBMC IRAK4 degradation flow assay (monocytes)
Assay type: cell-based
Set-up: endogenous in cells; host or cells: human PBMCs (monocytes, CD14 positive gate)
Conditions: CD14 positive monocytes, 20 h, read-out: hPBMC monocyte DC50 at 20 h
measure_name: DC50

smiles_str	assay_system	value_reported
O=C(O)Cn1cc(NC(=O)c2cccc3c2ccn3CCCCCCCCCNC[C@H]2CC[C@H](n3cc(NC(=O)c4cnn5ccc(N6C[C@H]7C[C@@H]6CO7)nc45)c(C(F)F)n3)CC2)ccc1=O	IRAK4 (Homo sapiens)	> 10 µM
COc1cc(-c2ccc(CCCCCCCCCNC[C@H]3CC[C@H](n4cc(NC(=O)c5cnn6ccc(N7C[C@H]8C[C@@H]7CO8)nc56)c(C(F)F)n4)CC3)cc2)ccc1C(=O)Nc1ccc(=O)n(CC(=O)O)c1	IRAK4 (Homo sapiens)	> 10 µM
O=C(O)Cn1cc(NC(=O)[C@H]2CCCN(c3cncc(CCCCNC[C@H]4CC[C@H](n5cc(NC(=O)c6cnn7ccc(N8C[C@H]9C[C@@H]8CO9)nc67)c(C(F)F)n5)CC4)c3)C2)ccc1=O	IRAK4 (Homo sapiens)	1 to 10 µM
